The values you see were collected from paper PMC6445123.

experimental.protocol: Ac-VEID-AFC hydrolysis kinetics of recombinant Casp6 variants (Michaelis-Menten)
Type: biochemical, human
measurement.conditions: Ac-VEID-AFC hydrolysis, mean ± SD
Method: In this study, we investigated how naturally occurring rare missense variants of human CASP6 affect Casp6 activity and structure. […] A34, E35, A109, and T182 are not conserved in 12 human caspases and in Casp6 from different species (Fig. 1a,b). […] Casp6 active sites were quantified using zVAD-FMK (N-benzyloxycarbonyl-Val-Ala-Asp-(O-methyl)-fluoromethylketone, MP Biomedicals, Santa Ana, CA, USA)[51],[64]. […] Released AFC was calculated from AFC standard curve (0-25 µM). […]
Reported Km by item:
measurement.label: Km (µM)

{"molecule": "Casp6-T182S: recombinant rare natural human Casp6 missense variant T182S (protein, UniProt P55212 1-293, looked up, variant T182S) MSSASGLRRGHPAGGEENMTETDAFYKREMFDPAEKYKMDHRRRGIALIFNHERFFWHLTLPERRGTCADRDNLTRRFSDLGFEVKCFNDLKAEELLLKIHEVSTVSHADADCFVCVFLSHGEGNHIYAYDAKIEIQTLTGLFKGDKCHSLVGKPKIFIIQACRGNQHDVPVIPLDVVDNQSEKLDTNITEVDAASVYTLPAGADFLMCYSVAEGYYSHRETVNGSWYIQDLCEMLGKYGSSLEFTELLTLVNRKVSQRRVDFCKDPSAIGKKQVPCFASMLTKKLHFFPKSN", "unit.symbol": "µM", "value.measured": 33.3}
{"molecule": "Casp6-A34E: recombinant rare natural human Casp6 missense variant A34E (protein, UniProt P55212 1-293, looked up, variant A34E) MSSASGLRRGHPAGGEENMTETDAFYKREMFDPEEKYKMDHRRRGIALIFNHERFFWHLTLPERRGTCADRDNLTRRFSDLGFEVKCFNDLKAEELLLKIHEVSTVSHADADCFVCVFLSHGEGNHIYAYDAKIEIQTLTGLFKGDKCHSLVGKPKIFIIQACRGNQHDVPVIPLDVVDNQTEKLDTNITEVDAASVYTLPAGADFLMCYSVAEGYYSHRETVNGSWYIQDLCEMLGKYGSSLEFTELLTLVNRKVSQRRVDFCKDPSAIGKKQVPCFASMLTKKLHFFPKSN", "unit.symbol": "µM", "value.measured": 22.7}
{"molecule": "Casp6-L200A: Casp6 L200A alanine mutant from full-length construct, poorly self-processed (protein, UniProt P55212 1-293, looked up, variant L200A, full-length, Casp6 L200A alanine mutant from full-length construct, poorly self-processed) MSSASGLRRGHPAGGEENMTETDAFYKREMFDPAEKYKMDHRRRGIALIFNHERFFWHLTLPERRGTCADRDNLTRRFSDLGFEVKCFNDLKAEELLLKIHEVSTVSHADADCFVCVFLSHGEGNHIYAYDAKIEIQTLTGLFKGDKCHSLVGKPKIFIIQACRGNQHDVPVIPLDVVDNQTEKLDTNITEVDAASVYTAPAGADFLMCYSVAEGYYSHRETVNGSWYIQDLCEMLGKYGSSLEFTELLTLVNRKVSQRRVDFCKDPSAIGKKQVPCFASMLTKKLHFFPKSN", "unit.symbol": "µM", "value.measured": 316}
